assayedTarget: Growth hormone secretagogue receptor type 1 (Homo sapiens)
Sequence (Q92847 whole entry): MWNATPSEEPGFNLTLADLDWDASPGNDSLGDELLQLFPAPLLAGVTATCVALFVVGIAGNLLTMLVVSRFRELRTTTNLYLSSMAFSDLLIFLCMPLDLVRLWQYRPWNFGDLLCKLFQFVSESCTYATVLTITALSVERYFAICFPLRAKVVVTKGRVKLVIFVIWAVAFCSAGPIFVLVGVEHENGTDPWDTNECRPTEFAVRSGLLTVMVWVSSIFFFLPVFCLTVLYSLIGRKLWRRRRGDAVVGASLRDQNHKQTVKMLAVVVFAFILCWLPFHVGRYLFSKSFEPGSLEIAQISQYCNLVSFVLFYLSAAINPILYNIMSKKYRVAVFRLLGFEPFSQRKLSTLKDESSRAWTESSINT
assayRemarks: SUPPLEMENTARY: Agonist activity at GSHR by FLIPR assay. Same assay as CHEMBL941945
readoutKind: EC50 (nM)

Solved entries (count: 3):
>>> reportedvalue("COc1ccc(N2C[C@@H](C)N[C@@H](C)C2)cc1NS(=O)(=O)c1cccc(Cl)c1Cl")
15.8
>>> reportedvalue("COc1ccc(N2C[C@@H](C)N[C@@H](C)C2)cc1NS(=O)(=O)c1ccc(-c2ccc(C)s2)c(F)c1")
3.98
>>> reportedvalue("COc1ccc(N2C[C@@H](C)N[C@@H](C)C2)cc1NS(=O)(=O)c1ccc(-c2cccc(C)n2)s1")
10

(a) COc1ccc(N2C[C@@H](C)N[C@@H](C)C2)cc1NS(=O)(=O)c1ccc(-c2ncccn2)cc1
(b) COc1ccc(N2C[C@@H](C)N[C@@H](C)C2)nc1NS(=O)(=O)c1ccc(-c2cc(C)cs2)cc1Cl
Would you kindly point out which of a and b has the smaller EC50 figure? Refer to your chosen item by its label in the answer.
b
(b: 5.01 nM, a: 12.6 nM)
